Hello, the source for this data is ChEMBL document CHEMBL1153177, in case you need it.

Test summary: Octanol-water partition coefficient, log D of the compound
Format: physicochemical
Attribute measured: logD

Some solved cases for reference:
Smiles record: CN(Cc1ccc(F)cc1)C(=O)c1nn(-c2ccccc2Cl)c(-c2ccc(Cl)cc2)c1CC#N
logD: 4.2
--
Smiles record: N#CCc1c(C(=O)NCc2ccc(Br)cc2)nn(-c2ccccc2Cl)c1-c1ccc(Cl)cc1
logD: 4.4
--
Smiles record: N#CCc1c(C(=O)NCc2ccccc2F)nn(-c2ccccc2Cl)c1-c1ccc(Cl)cc1
logD: 4.1
--
Smiles record: N#CCc1c(C(=O)NC2CCCCC2)nn(-c2ccccc2Cl)c1-c1ccc(Cl)cc1
logD: 3.5
--
Smiles record: N#CCc1c(C(=O)NCc2c(Cl)cccc2Cl)nn(-c2ccccc2Cl)c1-c1ccc(Cl)cc1
logD: 4.6
--
Smiles record: N#CCc1c(C(=O)NCc2ccc(F)c(Br)c2)nn(-c2ccccc2Cl)c1-c1ccc(Cl)cc1
logD: 4.4

Value of logD reported for the compound "N#CCc1c(C(=O)Nc2cccnc2)nn(-c2ccccc2Cl)c1-c1ccc(Cl)cc1" is 3.3
